Each recorded value in this set is attributed to patent US8455475B2.

- target_entity: human B1R (bradykinin receptor 1) (Homo sapiens, UniProt P46663)
- Construct: expressed in transfected cells; host or cells: CHO K1 cells
- Sequence (P46663 whole entry): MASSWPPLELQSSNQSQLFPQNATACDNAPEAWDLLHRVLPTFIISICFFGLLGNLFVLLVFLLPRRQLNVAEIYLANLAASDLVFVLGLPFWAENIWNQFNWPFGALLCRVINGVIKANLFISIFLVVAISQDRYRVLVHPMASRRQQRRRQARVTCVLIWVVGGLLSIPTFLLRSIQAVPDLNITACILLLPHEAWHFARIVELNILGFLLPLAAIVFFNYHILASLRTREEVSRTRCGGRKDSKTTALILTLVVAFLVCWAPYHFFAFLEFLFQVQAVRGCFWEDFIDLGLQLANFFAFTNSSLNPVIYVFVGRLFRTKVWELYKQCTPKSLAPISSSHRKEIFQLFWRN
- assay_protocol: FLIPR Ca2+ assay (Fluo-4) on CHO K1 cells stably transfected with the human B1R gene (hB1R cells): % inhibition at 10 μM / IC50, agonist Lys-Des-Arg9-bradykinin
- Format: cell-based
- measurement_context: CHO-K1, human B1R
Recorded measurements of inhibition at 10 µM, one per entry
measurement_type: inhibition at 10 µM (%)

1. CN(C)C1(c2ccc(F)cc2)CCC2(CCN(C(=O)c3ccc4c(c3)C(N(C(=O)c3ccccc3Cl)C3CC3)CC4)CC2)CC1 (stereo not shown)    56
2. CC1(C)CC(NC(=O)c2ccc(Cl)s2)c2cc(C(=O)N3CCC4(CC3)CCN(c3ccncc3)CC4)ccc21 (stereo not shown)    96
3. CN(C(=O)c1cccc(Cl)c1Cl)C1CCc2ccc(C(=O)N3CCC4(CC3)CCN(c3ccncc3)CC4)cc21 (stereo not shown)    88
4. CC1(C)CC(NC(=O)c2cccc(Cl)c2Cl)c2cc(C(=O)N3CCC4(CC3)CCN(c3ccncc3)CC4)ccc21 (stereo not shown)    96
5. O=C(c1ccc2c(c1)[C@H](NS(=O)(=O)Cc1ccccc1Cl)CC2)N1CCC2(CCN(c3ccncc3)CC2)C1    97
6. COc1ccc(C(=O)NC2CC(C)(C)c3ccc(C(=O)N4CCC5(CC4)CCN(c4ccncc4)CC5)cc32)c(Cl)c1 (stereo not shown)    99
7. O=C(c1ccc2c(c1)[C@H](NC(=O)C1(c3ccccc3Cl)CC1)CC2)N1CCC2(CCN(c3ccncc3)CC2)C1    100
8. O=C(NC1CCc2ccc(C(=O)N3CCC4(CC3)CCN(c3ccncc3)C4)cc21)c1cc(C(F)(F)F)ccc1Cl (stereo not shown)    94
9. CC1(C)CC(NC(=O)c2ccccn2)c2cc(C(=O)N3CCC4(CC3)CCN(c3ccncc3)CC4)ccc21 (stereo not shown)    62
10. O=C(NC1CCc2ccc(C(=O)N3CCC4(CC3)CCN(c3ccncc3)CC4)cc21)c1cccc(Cl)c1Cl (stereo not shown)    98
11. COc1ccc(N2CCC3(CCN(C(=O)c4ccc5c(c4)[C@H](NC(=O)c4ccccc4Cl)CC5)C3)CC2)cc1    31
12. CN(C(=O)c1c(Cl)cccc1Cl)C1CCc2ccc(C(=O)N3CCC4(CC3)CCN(c3ccncc3)CC4)cc21 (stereo not shown)    99
13. COc1ccc2cc(C(=O)N[C@@H]3CCc4ccc(C(=O)N5CCC6(CC5)CCN(c5ccncc5)C6)cc43)ccc2c1    96
14. Cc1ccc(F)c(C(=O)NC2c3cc(C(=O)N4CCC5(CC4)CCN(c4ccncc4)CC5)ccc3CC2(C)C)c1Cl (stereo not shown)    58
15. CN(C(=O)c1cc(F)ccc1Cl)C1CCc2ccc(C(=O)N3CCC4(CC3)CCN(c3ccncc3)CC4)cc21 (stereo not shown)    99
16. O=C(NC1CCc2ccc(C(=O)N3CCC4(CCN(c5ccncc5)CC4)C3)cc21)c1c(F)cccc1Cl (stereo not shown)    100
17. O=C(c1ccc2c(c1)CC[C@H]2N1Cc2cccc(Cl)c2C1=O)N1CCC2(CC1)CCN(c1ccncc1)CC2    98
18. O=C(NC1CCc2ccc(C(=O)N3CCC4(CC3)CCN(c3ccncc3)CC4)cc21)c1ccccc1C(F)(F)F (stereo not shown)    99
19. Cc1cccc(C)c1C(=O)NC1CCc2ccc(C(=O)N3CCC4(CC3)CCN(c3ccncc3)CC4)cc21 (stereo not shown)    99
20. O=C(NC1CCc2ccc(C(=O)N3CCC4(CCN(c5ccc(C(F)(F)F)cn5)CC4)C3)cc21)c1ccccc1Cl (stereo not shown)    63
21. Cc1cc2c(cc1C(=O)N1CCC3(CC1)CCN(c1ccncc1)C3)[C@H](NC(=O)c1ccccc1Cl)CC2    99
22. O=C(N[C@@H]1CCc2ccc(C(=O)N3CCC4(CCN(c5ccncc5)CC4)C3)cc21)c1cncnc1    100
23. O=C(NC1CCc2ccc(C(=O)N3CCC4(CCN(c5ccncc5)CC4)C3)cc21)c1cccc(Cl)c1Cl (stereo not shown)    100
24. COc1ccc(C(=O)NC2CC(C)(C)c3ccc(C(=O)N4CCC5(CC4)CCN(c4ccncc4)CC5)cc32)c(F)c1 (stereo not shown)    44
25. O=C(N[C@H]1CCCc2ccc(C(=O)N3CCC4(CC3)CCN(c3ccncc3)CC4)cc21)c1ccccc1Cl    49
26. O=C(NC1CCc2ccc(C(=O)N3CCC4(CCN(c5ccncc5)C4)C3)cc21)c1ccccc1Cl (stereo not shown)    100
27. COc1cc(C)c(C(=O)NC2CCc3ccc(C(=O)N4CCC5(CC4)CCC(c4ccc(F)cc4)(N(C)C)CC5)cc32)c(C)c1 (stereo not shown)    34
28. CC1(C)Cc2ccc(C(=O)N3CCC4(CC3)CCN(c3ccncc3)CC4)cc2C1NC(=O)c1c(Cl)cccc1C(F)(F)F (stereo not shown)    100
